Parameter: % intercalation at 30 µM. Scope: all listed entries.
- System: 45-bp dsDNA
- measurement protocol: DNA intercalation: acridine orange displacement from dsDNA by fluorescence polarization
- Format: binding
- test conditions: Supplementary Table 2; acridine orange displacement compared to mitoxantrone

compound	% intercalation at 30 µM / %
CC[C@@]1(O)C[C@H](O[C@H]2C[C@H](N(C)C)[C@H](O)[C@H](C)O2)c2c(cc3c(c2O)C(=O)c2c(O)cccc2C3=O)[C@H]1C(=O)OC	90.6
O=c1[nH]n2c(=O)c3ccccc3nc2c2ccccc12	-2.1
Cc1nn(-c2nc3ccccc3[nH]2)c(O)c1C1OC(=O)c2ccccc21 (centres unmarked)	-6.7
CC(C)OC(=O)C(C#N)=Cc1ccc([N+](=O)[O-])o1	-8.1
C[n+]1cc2c3c(ccc2c2ccc4cc5c(cc4c21)OCO5)OCO3	95.0
CC(=O)[C@]1(O)Cc2c(O)c3c(c(O)c2[C@@H](O[C@H]2C[C@H](N)[C@H](O)[C@H](C)O2)C1)C(=O)c1ccccc1C3=O	87.2
CCN(CC)CCNc1ccc(CO)c2sc3ccccc3c(=O)c12	81.2
CCOc1ccc2nc3cc(N)ccc3c(N)c2c1	54.5
